- experiment_description: Inhibition of alpha-mannosidase from jack bean at pH 5
- Parameters: species or system Canavalia ensiformis
pKi: −log10 of the molar value.
measurement_label: pKi

> print(dat)
                                   molecule  result.number
1  OC[C@H](NC[C@H]1NC[C@H](O)[C@@H]1O)c1ccc(-c2ccsc2)cc1           6.10
2  OC[C@H](NC[C@H]1NC[C@H](O)[C@@H]1O)c1ccc(-c2ccccc2)cc1           6.05
3  OC[C@H](NC[C@H]1NC[C@H](O)[C@@H]1O)c1ccc(OCc2ccccc2)cc1           6.22
4  OC[C@H](NC[C@H]1NC[C@H](O)[C@@H]1O)c1ccc(-c2ccc(C(F)(F)F)cc2)cc1           5.57
5  COc1ccc([C@H](CO)NC[C@H]2NC[C@H](O)[C@@H]2O)cc1           6.30
6  C=CCOc1ccc([C@H](CO)NC[C@H]2NC[C@H](O)[C@@H]2O)cc1           6.30
